All values here come from the supplement of paper PMC9170038.

# Tested on: MS2 coat protein
# procedure_text: apparent KD of MS2 coat protein; designed switch direction (-1 OFF switch, 1 ON switch): -1; higher = weaker reporter binding
# reported_conditions: Eterna round: R95; input ligand: FMN 200 uM
# key: entry, value: apparent KD of MS2 coat protein

# seq_string, apparent KD of MS2 coat protein [nM]
records = [
    ("AGAUGUAGAUACCGAUCCUACAUGAGGAUCACCCAUGUAGCUAGACGUGCGCGCGUCGCUCGUCAGACUACCAGUAG [salish99_TOv1_r3_092] (puzzle: Sensor v3, turn-off variant 1)", 330),
    ("AAACCUGCCCAUGACCGCAAGCUUUUCGCUUGUCUUACCACAUGAGGAUCACCCAUGUGACAUGGGCUCCUUAUAAA [Usorle] (puzzle: Sensor v3, turn-off variant 2)", 14),
    ("CAUACAGUAGUCAGGAUAUUGCAACACACACGGAACGAGAAGGGACAUGAGGAUCACCCAUGUAUACUGUAAAG [EX-4 Malc #5] (puzzle: Brourd's mod of Exclusion 4)", 16),
]

###

# System: MS2 coat protein
# procedure_text: apparent KD of MS2 coat protein; designed switch direction (-1 OFF switch, 1 ON switch): -1; higher = weaker reporter binding
# reported_conditions: Eterna round: R95; input ligand: microRNA oligo, concentration not stated
Label scheme for apparent KD of MS2 coat protein: lower than 50 nM is Not satisfied, 50 nM and above is Satisfied.

# seq_string, answer_label
measured = [
    ("GAAAAGGUAGGAUAUACGAAAAAAAAGGUUAGAAAAAAAACACAUGAGGAUCACCCAUGUAGAAGGACCAAAAG [salish99_ex2_r3_067] (puzzle: Exclusion 2)", "Not satisfied"),
    ("UUCCAACGAGGAUAUCGAUGGUGGAACAUGAGGAUCACCCAUGUAUGAGAUAGUGUAGUUCGAGAAGGCGUUCAGU [JR_E5_Sub055] (puzzle: Exclusion 5)", "Not satisfied"),
    ("GGGUAGUGAGGAUAUCGUUGUUAGGAGGAGUAGGUAGGAGGCGAGAAGGCACAUGAGGAUCACCCAUGUAUGAA [JR_Exclu4_Sub066] (puzzle: Exclusion 4)", "Not satisfied"),
    ("GGUGGACAUGAGGAUCACCCAUGUGAGGAUAUCGGCUAUCUACUCGCUGACGGCUGCUCGAGAAGGCACAUUGU [Exclusion 1 V91] (puzzle: Exclusion 1)", "Satisfied"),
    ("ACCCAACAUGAGGAUCACCCAUGUCAGGAUAUCCAAGCGAAAGCAAAAGCGAAAGCAAGGAGAAGGGACAAUGG [ChP 04-04-2015 #7] (puzzle: Exclusion 1)", "Satisfied"),
    ("AGCCUACAUGAGGAUCACCCAUGUCAGGAUAUCUCGCAACGUGUCAAGUUCACGUCGCAGAGAAGGGACUCGGG [Tienberi] (puzzle: Exclusion 1)", "Satisfied"),
    ("AAGUGUCCUAAGGAUAUCGAAGCUAUCGGCUGCCGAGAAGGUAGGACAUGAGGAUCACCCAUGUACCGUGAGCC [Reedor] (puzzle: Exclusion 6)", "Satisfied"),
    ("AAAUCCGCUGAGGAUAUCAUGACUGAGAGGUCAUGAGAAGGCGGUACAUGAGGAUCACCCAUGUCUAUGGGCAA [Ex-6 Malc#28] (puzzle: Exclusion 6)", "Satisfied"),
    ("GUGUAGAUAGGAUAUGCUUUGAGCCUACGAAAGUACGCUCGACAUGAGGAUCACCCAUGUAGAAGGGUUUACAC [LRO-Excl2-05] (puzzle: Exclusion 2)", "Satisfied"),
    ("UUUUAACAUGAGGAUCACCCAUGUGAGGAUAUCGAAAUUUAUAUUAAUAUUAAUAUAACGAGAAGGCACAUUUU [JMF 23] (puzzle: Exclusion 1)", "Not satisfied"),
    ("CGGUGCUGAGGAUAUACAUGAGGAUCACCCAUGUGUUCCGGCUAGCUGACUGGCGCUUGUAGAAGGCAGUACUG [JL-ex3-2.11 Brourd mod] (puzzle: Exclusion 3)", "Not satisfied"),
    ("UUAUAUAGUGUGAGGAUAUGCUGGUCCUUGGAUCAGCAGAAGGCACAUGAGGAUCACCCAUGUAGUUAAUUAUA [Mat - Exclusion 4 - JL Mod - D15] (puzzle: Brourd's mod of Exclusion 4)", "Not satisfied"),
    ("UUAUUAAGUGUGAGGAUAUGCUGGUCCUUGGAUCAGCAGAAGGCACAUGAGGAUCACCCAUGUACAUUAUUUUA [Mat - Exclusion 4 - JL Mod - D28] (puzzle: Brourd's mod of Exclusion 4)", "Not satisfied"),
    ("CUCGGACAUGAGGAUCACCCAUGUGAGGAUAUGAUGCGAUCGUCGAAAGACGAUAGCAUCAGAAGGCACAAAUG [Fiskers Ex 1 - 25] (puzzle: Exclusion 1)", "Satisfied"),
    ("AAUAACAGAGGAUAUACUGUUUUAUGUAUUUAUUAUUUUGAACAUGAGGAUCACCCAUGUAGAAGGCUGAUUGA [JMF 75] (puzzle: Exclusion 2)", "Not satisfied"),
    ("CUUUUGUGAGGAUAUCAGUAGUAAAAUAAUAAAAUAACUACUGAGAAGGCACAUGAGGAUCACCCAUGUUCCUC [Mat - Exclusion 4 - Mod of Salish - D73] (puzzle: Exclusion 4)", "Not satisfied"),
    ("UUUGUACAUGAGGAUCACCCAUGUUAGGAUAUCUCGCCGUCGGCUUGCCGACGGUAUUAGAGAAGGGACAAGGG [JL Tixe mod 8] (puzzle: Exclusion 1)", "Satisfied"),
    ("CCUCUACAUGAGGAUCACCCAUGUGAGGAUAUCUCGGAGCAACCACUUAAGGCGCUCCAGAGAAGGCACGUGUA [Erralaqu] (puzzle: Exclusion 1)", "Not satisfied"),
    ("UCGGCGCGAGGAUAUACGUUUGCUUUUUUUUGUCGUUGCGUACAUGAGGAUCACCCAUGUAGAAGGCGCGCCGC [Apr-15 SS2-23] (puzzle: Exclusion 2)", "Not satisfied"),
    ("AAAAGGUGAGGAUAUACAAUGAUCCUCAUAAUAACCCGAAGACAUGAGGAUCACCCAUGUAGAAGGCACAAAUA [Istive] (puzzle: Exclusion 2)", "Not satisfied"),
    ("CAGUACUGAGGAUAUACAUGAGGAUCACCCAUGUGUUCCAGCUAGGAAACUAGCAAAGGUAGAAGGCAGUACUG [salish99_ex3_r3_065] (puzzle: Exclusion 3)", "Not satisfied"),
    ("GAUUAUGCGAGCUUUAGGGACAUGAGGAUCACCCAUGUUCGUCUUAUUAGUCUAGAUACGCUGACAUACCUAAAUCU [JMF 96] (puzzle: Sensor v3, turn-off variant 1)", "Not satisfied"),
]

###

# Test system: MS2 coat protein
# procedure_text: apparent KD of MS2 coat protein; designed switch direction (-1 OFF switch, 1 ON switch): -1; higher = weaker reporter binding
# reported_conditions: Eterna round: R95; input ligand: microRNA oligo, concentration not stated
In this section, each of the sequences is paired with its reported apparent KD of MS2 coat protein.

# seq_string, tested_system, apparent KD of MS2 coat protein (nM)
records = [
    ("UUUUAACAUGAGGAUCACCCAUGUGAGGAUAUCGAAAUUUAUAUUAAUAUUUAUUAUACGAGAAGGCACAUUUU [JMF 62] (puzzle: Exclusion 1)", "MS2 coat protein", 77.5),
    ("CUAUUGCGAGGAUAUGAUUUAAAUAACAUGAGGAUCACCCAUGUUUUUACGUUGUUAUGUUCAGAAGGCGUAUUGU [JR_E5_Sub024] (puzzle: Exclusion 5)", "MS2 coat protein", 41.4),
    ("UAAAUGUGAGGAUAUCAGGUGUGCUAGAGAACUGGUACAUCUGAGAAGGCACAUGAGGAUCACCCAUGUUCUUC [Mat - Exclusion 4 - Mod of JL - D56] (puzzle: Exclusion 4)", "MS2 coat protein", 38.3),
    ("GCAUGAUACUAGGAUAUCAGCAUACUUCAAUGUUGAGAAGGAGUAACAUGAGGAUCACCCAUGUAUCCAACAUG [Exclusion 6 - 4:a] (puzzle: Exclusion 6)", "MS2 coat protein", 38.5),
    ("AUGGACGCAGGAUAUACAUGAGGAUCACCCAUGUUAGGGUUAAGAGAAGGAAGGGAGAGUAGAAGGGCGAGAGU [JR_Exclu3_Sub0100] (puzzle: Exclusion 3)", "MS2 coat protein", 110),
]

###

# System: K4 kissing-loop RNA reporter;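 note: bound reporter read as fluorescence of individual clusters on recovered sequencing chips by microscopy, with normalized cluster intensities fitted with a binding model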
# procedure_text: apparent KD of K4 kissing-loop reporter; higher = weaker reporter binding
# reported_conditions: Eterna round: R107; input ligand: arginine 13.2 mM
readout_type: apparent KD of K4 kissing-loop reporter (nM)

# seq_string, readout_type, scale_unit, observed
data = [
    ("GUAUCAGUGAUGUUGGUAGGCGAGCGGGAUACCAGCCAAGACUCAGGCCCUUGGCAGCCCACAUAUCCCACGUAGAUAGUAGCUC [Same State - Theophylline A (Freestyle 15)]", "apparent KD of K4 kissing-loop reporter", "nM", 95.6),
    ("ACGUCCCGUUUACUCGUGGGUUAGGUCGAUACCAGUAUUCAAACUUACCCUUGGCAGCGACAUGAGUGAUGUUCAUGUGCGAAGA [KL-XTheo-A5 #analogue]", "apparent KD of K4 kissing-loop reporter", "nM", 96.2),
    ("UCCUGCAAUCUACCACGAAAGUGGAUGGAUACCAGAGUCGAAAGACUCCCUUGGCAGCCAGUGAUGUUGGAGCAGGUAAAAUAAA", "apparent KD of K4 kissing-loop reporter", "nM", 462),
    ("AAGUGAUGUUGUAGUGAUGUUGUGAUGUUGCAGGAUAUAUAGUGAUGUAGAAGGGUAUGUGCAGUUUUCAUAUUUGAGUGUUGAU [mkkhmullin]", "apparent KD of K4 kissing-loop reporter", "nM", 37.6),
    ("UUACGAGUGAUGUUCGAAUAAAUCCAUUCAGAGGAUAUAGUAUUAACUAGAAGGCUGAAACCAACUUCGAGUCAUGUUCGAGGAU [Same State FMN A GF 2]", "apparent KD of K4 kissing-loop reporter", "nM", 324),
    ("AAGUAGCUCUCGGCCGCCACUCCUCAGUGAUGUUGAGAUAUUAAGAGCCAAUUGGCUCAUAUAAAGAGGACCGGGAGAGCUACAA [AK4 SS Tryptophan B]", "apparent KD of K4 kissing-loop reporter", "nM", 276),
]
